This listing pairs variants with measured polymerase ribozyme fitness (log ratio).
B1: TPR 5TU (parent)
chain: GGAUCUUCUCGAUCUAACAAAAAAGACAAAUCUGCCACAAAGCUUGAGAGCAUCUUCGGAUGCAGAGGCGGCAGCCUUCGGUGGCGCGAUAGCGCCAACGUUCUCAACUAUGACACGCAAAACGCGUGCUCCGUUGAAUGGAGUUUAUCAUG

Variants of: B1
ASSAY_TEXT: polymerase ribozyme fitness, log enrichment relative to wild type (log ratio); higher = more active; in vitro selection for triplet polymerase activity
Fewer inactive variants are shown than the library holds.
Please give the numeric answer without any surrounding text.

Example entries begin here.
>>> print(df.to_string())
               variant_designation  reported_value
0                       C14U A138C           -3.75
1                        C76U G81A           0.573
2                  A47C A73U C118A           -3.14
3                        A12C A30G           -3.77
4  G34C C36A A91C C96U C123G G140A           -4.15

Memo: C51U C85A , reported polymerase ribozyme fitness (log ratio): -2.63

Memo: G80A G84A A120G , reported polymerase ribozyme fitness (log ratio): -1.33

Memo: G84A A106G A142C , reported polymerase ribozyme fitness (log ratio): -0.922

Memo: C14G A97U A98G , reported polymerase ribozyme fitness (log ratio): -2.74
